- target_entity: human muscarinic M4 receptor (Homo sapiens, UniProt P08173)
- Construct: expressed in transfected cells
- Sequence (P08173 1-479): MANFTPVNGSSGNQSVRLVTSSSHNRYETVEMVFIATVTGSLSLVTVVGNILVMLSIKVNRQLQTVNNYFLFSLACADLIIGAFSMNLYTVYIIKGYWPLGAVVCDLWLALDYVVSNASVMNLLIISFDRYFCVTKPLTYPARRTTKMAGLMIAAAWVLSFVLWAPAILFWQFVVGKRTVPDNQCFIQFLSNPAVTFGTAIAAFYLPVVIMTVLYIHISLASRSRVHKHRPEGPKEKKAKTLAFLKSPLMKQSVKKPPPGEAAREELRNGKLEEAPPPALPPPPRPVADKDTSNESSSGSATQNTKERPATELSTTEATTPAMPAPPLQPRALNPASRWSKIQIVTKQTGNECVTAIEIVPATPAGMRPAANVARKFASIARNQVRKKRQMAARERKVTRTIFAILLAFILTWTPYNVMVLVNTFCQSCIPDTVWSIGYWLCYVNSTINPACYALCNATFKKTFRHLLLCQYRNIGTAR
- protocol_notes: Alphascreen Surefire phospho-ERK1/2 functional assay, M4
- Format: cell-based
- conditions_used: CHO, read-out: % Emax cf. ACh (M4), CHO cells stably expressing human M4; phospho-ERK1/2; relative to ACh
measurement_type: Emax (%)

CCOC(=O)N1CCC2(CC(N3CCC(C(C)N(C(C)=O)C4CC4)CC3)C2)C1 (single isomer, unassigned) [2-13 Isomer 2]    88
CCCN(C(C)=O)C1CCN(C2CC3(CCN(C(=O)OCC)C3)C2)CC1 (single isomer, unassigned) [2-18 Isomer 2]    107
CCOC(=O)N1CCC2(CC(N3CCC(N(Cc4cnco4)C(C)=O)CC3)C2)C1 (single isomer, unassigned) [2-36 Isomer 2]    71

(a) CCOC(=O)N1CCC2(CC(N3CCC(N(CC)CCS(C)(=O)=O)CC3)C2)C1 (single isomer, unassigned) [2-56 Isomer 2]
(b) CCOC(=O)N1CCC2(CC(N3CCC(N(C(C)=O)C4CC(F)(F)C4)CC3)C2)C1 (single isomer, unassigned) [2-28 Isomer 2]
Qu. Out of a and b , name the one with the higher Emax. Kindly give the label for the entry you pick.
Ans. b
